Procedure Text: Ex vivo biodistribution and tumor targeting
Experimental Setup: female, BALB/c nu/nu, mouse, kidneys, iv, 45 pmol per mouse, total radioactivity, Kidneys uptake, PC-3-xenografted BALB/c nu/nu mice, iv 25 kBq/45 pmol, 3 h pi, 4 mice per data point
Measured Endpoint: tissue uptake at 3 h (%ID/g)
The answer is to be given in %ID/g; state only the numeric part.

query: Read the entry CC(C)C[C@H](NC(=O)C[C@H](O)[C@H](CC(C)C)NC(=O)[C@H](Cc1c[nH]cn1)NC(=O)CNC(=O)[C@@H](NC(=O)[C@H](C)NC(=O)[C@H](Cc1c[nH]c2ccccc12)NC(=O)[C@H](CCC(N)=O)NC(=O)[C@@H](Cc1ccccc1)NC(=O)COCCOCCNC(=O)CCC(C(=O)O)N1CCN(CC(=O)O)CCN(CC(=O)O)CCN(CC(=O)O)CC1)C(C)C)C(N)=O (stereo partly shown) and write its reported tissue uptake at 3 h.
result: 3.5

query: Read the entry CC(C)C[C@H](NC(=O)C[C@H](O)[C@H](CC(C)C)NC(=O)[C@H](Cc1c[nH]cn1)NC(=O)CNC(=O)[C@@H](NC(=O)[C@H](C)NC(=O)[C@H](Cc1c[nH]c2ccccc12)NC(=O)[C@H](CCC(N)=O)NC(=O)[C@@H](Cc1ccccc1)NC(=O)COCCOCCNC(=O)CN1CCN(CC(=O)O)CCN(CC(=O)O)CC1)C(C)C)C(N)=O and write its reported tissue uptake at 3 h.
result: 0.93

query: Read the entry CC(C)C[C@H](NC(=O)C[C@H](O)[C@H](CC(C)C)NC(=O)[C@H](Cc1c[nH]cn1)NC(=O)CNC(=O)[C@@H](NC(=O)[C@H](C)NC(=O)[C@H](Cc1c[nH]c2ccccc12)NC(=O)[C@H](CCC(N)=O)NC(=O)[C@@H](Cc1ccccc1)NC(=O)COCCOCCNC(=O)CN1CCN(CC(=O)O)CCN(CC(=O)O)CCN(CC(=O)O)CC1)C(C)C)C(N)=O and write its reported tissue uptake at 3 h.
result: 1.9

We now examine a further molecule.
query: Read the entry CC(C)C[C@H](NC(=O)C[C@H](O)[C@H](CC(C)C)NC(=O)[C@H](Cc1c[nH]cn1)NC(=O)CNC(=O)[C@@H](NC(=O)[C@H](C)NC(=O)[C@H](Cc1c[nH]c2ccccc12)NC(=O)[C@H](CCC(N)=O)NC(=O)[C@@H](Cc1ccccc1)NC(=O)COCCOCCNC(=O)CCC(C(=O)O)N1CCN(CC(=O)O)CCN(CC(=O)O)CC1)C(C)C)C(N)=O (stereo partly shown) and write its reported tissue uptake at 3 h.
result: 2.5

----------
Procedure Text: Ex vivo biodistribution and tumor targeting
Experimental Setup: female, BALB/c nu/nu, mouse, tumor, iv, 45 pmol per mouse, total radioactivity, Tumor uptake, PC-3-xenografted BALB/c nu/nu mice, iv 25 kBq/45 pmol, 3 h pi, 4 mice per data point
Measured Endpoint: tissue uptake at 3 h (%ID/g)
The answer is to be given in %ID/g; state only the numeric part.

Example results:
query: Read the entry CC(C)C[C@H](NC(=O)C[C@H](O)[C@H](CC(C)C)NC(=O)[C@H](Cc1c[nH]cn1)NC(=O)CNC(=O)[C@@H](NC(=O)[C@H](C)NC(=O)[C@H](Cc1c[nH]c2ccccc12)NC(=O)[C@H](CCC(N)=O)NC(=O)[C@@H](Cc1ccccc1)NC(=O)COCCOCCNC(=O)CCC(C(=O)O)N1CCN(CC(=O)O)CCN(CC(=O)O)CC1)C(C)C)C(N)=O (stereo partly shown) [NODAGA] and write its reported tissue uptake at 3 h.
result: 6.3

query: Read the entry CC(C)C[C@H](NC(=O)C[C@H](O)[C@H](CC(C)C)NC(=O)[C@H](Cc1c[nH]cn1)NC(=O)CNC(=O)[C@@H](NC(=O)[C@H](C)NC(=O)[C@H](Cc1c[nH]c2ccccc12)NC(=O)[C@H](CCC(N)=O)NC(=O)[C@@H](Cc1ccccc1)NC(=O)COCCOCCNC(=O)CN1CCN(CC(=O)O)CCN(CC(=O)O)CC1)C(C)C)C(N)=O [NOTA] and write its reported tissue uptake at 3 h.
result: 7.3

query: Read the entry CC(C)C[C@H](NC(=O)C[C@H](O)[C@H](CC(C)C)NC(=O)[C@H](Cc1c[nH]cn1)NC(=O)CNC(=O)[C@@H](NC(=O)[C@H](C)NC(=O)[C@H](Cc1c[nH]c2ccccc12)NC(=O)[C@H](CCC(N)=O)NC(=O)[C@@H](Cc1ccccc1)NC(=O)COCCOCCNC(=O)CN1CCN(CC(=O)O)CCN(CC(=O)O)CCN(CC(=O)O)CC1)C(C)C)C(N)=O [DOTA] and write its reported tissue uptake at 3 h.
result: 8.1

We now examine a further molecule.
query: Read the entry CC(C)C[C@H](NC(=O)C[C@H](O)[C@H](CC(C)C)NC(=O)[C@H](Cc1c[nH]cn1)NC(=O)CNC(=O)[C@@H](NC(=O)[C@H](C)NC(=O)[C@H](Cc1c[nH]c2ccccc12)NC(=O)[C@H](CCC(N)=O)NC(=O)[C@@H](Cc1ccccc1)NC(=O)COCCOCCNC(=O)CCC(C(=O)O)N1CCN(CC(=O)O)CCN(CC(=O)O)CCN(CC(=O)O)CC1)C(C)C)C(N)=O (stereo partly shown) [DOTAGA] and write its reported tissue uptake at 3 h.
result: 6.9
